Field: % weight gain. Provide a value for each of the compounds that follow.
assay: Hygroscopicity at room temperature (weight gain and visual phase transition after 24 hours at controlled RH); assay type: physicochemical; settings: 55% RH, room temperature, 24 hours
Put your answer as a value accompanied by its unit after it.

Data request: Please give the measured % weight gain for this compound: CC(C)c1nc(CN(C)C(=O)N[C@@H](CCN2CCOCC2)C(=O)N[C@H](CC[C@H](Cc2ccccc2)NC(=O)OCc2cncs2)Cc2ccccc2)cs1.Cl [hydrochloride]
Data returned: 4.32%

Data request: Please give the measured % weight gain for this compound: CC(C)c1nc(CN(C)C(=O)N[C@@H](CCN2CCOCC2)C(=O)N[C@H](CC[C@H](Cc2ccccc2)NC(=O)OCc2cncs2)Cc2ccccc2)cs1.CC1(C)C2CCC1(CS(=O)(=O)O)C(=O)C2 [camphorosulfonate]
Data returned: 2.99%

Data request: Please give the measured % weight gain for this compound: CC(C)c1nc(CN(C)C(=O)N[C@@H](CCN2CCOCC2)C(=O)N[C@H](CC[C@H](Cc2ccccc2)NC(=O)OCc2cncs2)Cc2ccccc2)cs1.O=C(O)CCC(=O)O [succinate]
Data returned: 3.95%

* * *

Assay: Hygroscopicity at room temperature (weight gain and visual phase transition after 24 hours at controlled RH)
Type: physicochemical
Conditions: spray dried salts, 75% RH
Protocol: Hygroscopicity of salts of invention were measured by placing 20-50 mg of the sample in an uncapped scintillation vial. The vial was stored at ambient temperature in a Pyrex brand desiccator (VWR, International, CT). […] The relative humidity was confirmed using a digital hygrometer pen (VWR International, CT). An empty scintillation vial was also placed in the desiccator as a control. […] Visual observation of phase transition was also noted.
ENDPOINT LABEL: Phase transition

# COMPOUND, RESULT
measured = [
    ("CC(C)c1nc(CN(C)C(=O)N[C@@H](CCN2CCOCC2)C(=O)N[C@H](CC[C@H](Cc2ccccc2)NC(=O)OCc2cncs2)Cc2ccccc2)cs1.O=C1NS(=O)(=O)c2ccccc21 [saccharinate]", "yes"),
    ("CC(C)c1nc(CN(C)C(=O)NC(CCN2CCOCC2)C(=O)NC(CCC(Cc2ccccc2)NC(=O)OCc2cncs2)Cc2ccccc2)cs1.O=C(O)c1ccc2ccccc2c1O (centres unmarked) [xinafoate]", "no"),
    ("CC(C)c1nc(CN(C)C(=O)N[C@@H](CCN2CCOCC2)C(=O)N[C@H](CC[C@H](Cc2ccccc2)NC(=O)OCc2cncs2)Cc2ccccc2)cs1.Cl [hydrochloride]", "yes"),
    ("CC(C)c1nc(CN(C)C(=O)N[C@@H](CCN2CCOCC2)C(=O)N[C@H](CC[C@H](Cc2ccccc2)NC(=O)OCc2cncs2)Cc2ccccc2)cs1.O=P(O)(O)O [phosphate]", "yes"),
]

* * *

Assay: Glass transition temperature (Tg) by modulated differential scanning calorimetry (mDSC)
Format: physicochemical
Conditions: spray dried salts (from acetone)
Description: Modulated differential scanning calorimetry (mDSC) was used to characterize salts of the invention. Solid samples were placed in hermetically sealed aluminum pan with a pinhole. Modulation amplitude of ±0.8° C. with a period of 60 sec was applied to the sample heated at 2° C./min under dried nitrogen purge using TA instruments (New Castle, Del., USA) model 1000. […]
Binary classification by Tg (° C.), with 60 °C as an inclusive lower bound for class 1; all other cases are class 0.

Data request: Decide: is the reported value of Tg (° C.) for CC(C)c1nc(CN(C)C(=O)N[C@@H](CCN2CCOCC2)C(=O)N[C@H](CC[C@H](Cc2ccccc2)NC(=O)OCc2cncs2)Cc2ccccc2)cs1.Cl [hydrochloride] equal to or greater than 60 °C?
Data returned: class 0

Data request: Decide: is the reported value of Tg (° C.) for CC(C)c1nc(CN(C)C(=O)N[C@@H](CCN2CCOCC2)C(=O)N[C@H](CC[C@H](Cc2ccccc2)NC(=O)OCc2cncs2)Cc2ccccc2)cs1.O=C1NS(=O)(=O)c2ccccc21 [saccharinate] equal to or greater than 60 °C?
Data returned: class 0

Data request: Decide: is the reported value of Tg (° C.) for CC(C)c1nc(CN(C)C(=O)NC(CCN2CCOCC2)C(=O)NC(CCC(Cc2ccccc2)NC(=O)OCc2cncs2)Cc2ccccc2)cs1.O=C(O)c1ccc2ccccc2c1O (centres unmarked) [xinafoate] equal to or greater than 60 °C?
Data returned: class 0

Data request: Decide: is the reported value of Tg (° C.) for CC(C)c1nc(CN(C)C(=O)N[C@@H](CCN2CCOCC2)C(=O)N[C@H](CC[C@H](Cc2ccccc2)NC(=O)OCc2cncs2)Cc2ccccc2)cs1.O=P(O)(O)O [phosphate] equal to or greater than 60 °C?
Data returned: class 1

* * *

experiment: Glass transition temperature (Tg) by modulated differential scanning calorimetry (mDSC); assay type: physicochemical; settings: mDSC, first heating cycle; precipitated salts of Compound 1
ENDPOINT LABEL: Tg (° C.) First heating (°C)
Only the number, expressed in °C, is required.

Data request: Please give the measured Tg (° C.) First heating for this compound: CC(C)c1nc(CN(C)C(=O)N[C@@H](CCN2CCOCC2)C(=O)N[C@H](CC[C@H](Cc2ccccc2)NC(=O)OCc2cncs2)Cc2ccccc2)cs1.O=C1NS(=O)(=O)c2ccccc21 [saccharinate]
Data returned: 37

Data request: Please give the measured Tg (° C.) First heating for this compound: CC(C)c1nc(CN(C)C(=O)N[C@@H](CCN2CCOCC2)C(=O)N[C@H](CC[C@H](Cc2ccccc2)NC(=O)OCc2cncs2)Cc2ccccc2)cs1.CC1(C)C2CCC1(CS(=O)(=O)O)C(=O)C2 [camphorosulfonate]
Data returned: 66

Data request: Please give the measured Tg (° C.) First heating for this compound: CC(C)c1nc(CN(C)C(=O)N[C@@H](CCN2CCOCC2)C(=O)N[C@H](CC[C@H](Cc2ccccc2)NC(=O)OCc2cncs2)Cc2ccccc2)cs1.O=C(O)CC(=O)O [malonate]
Data returned: 14

Data request: Please give the measured Tg (° C.) First heating for this compound: O=S(=O)(O)O [sulfate]
Data returned: 71

* * *

Assay: Glass transition temperature (Tg) by modulated differential scanning calorimetry (mDSC)
Assay type: physicochemical
Settings: mDSC, first heating cycle; precipitated salts of Compound 1
Protocol: Modulated differential scanning calorimetry (mDSC) was used to characterize salts of the invention. Solid samples were placed in hermetically sealed aluminum pan with a pinhole. Modulation amplitude of ±0.8° C. with a period of 60 sec was applied to the sample heated at 2° C./min under dried nitrogen purge using TA instruments (New Castle, Del., USA) model 1000. […]
hey, just use satisfied if measured Tg (° C.) First heating is less than 50 °C, otherwise not satisfied

Data request: Strictly below 50 °C in Tg (° C.) First heating? CC(C)c1nc(CN(C)C(=O)N[C@@H](CCN2CCOCC2)C(=O)N[C@H](CC[C@H](Cc2ccccc2)NC(=O)OCc2cncs2)Cc2ccccc2)cs1.O=C(O)c1cc(O)ccc1O [gentisate]
Data returned: not satisfied

Data request: Strictly below 50 °C in Tg (° C.) First heating? CC(C)c1nc(CN(C)C(=O)N[C@@H](CCN2CCOCC2)C(=O)N[C@H](CC[C@H](Cc2ccccc2)NC(=O)OCc2cncs2)Cc2ccccc2)cs1.O=C(O)CNC(=O)c1ccccc1 [hippurate]
Data returned: satisfied

Data request: Strictly below 50 °C in Tg (° C.) First heating? CC(C)c1nc(CN(C)C(=O)N[C@@H](CCN2CCOCC2)C(=O)N[C@H](CC[C@H](Cc2ccccc2)NC(=O)OCc2cncs2)Cc2ccccc2)cs1 [citrate]
Data returned: not satisfied

Data request: Strictly below 50 °C in Tg (° C.) First heating? CC(C)c1nc(CN(C)C(=O)N[C@@H](CCN2CCOCC2)C(=O)N[C@H](CC[C@H](Cc2ccccc2)NC(=O)OCc2cncs2)Cc2ccccc2)cs1.O=C(O)C(=O)O.O=C(O)C(=O)O [oxalate]
Data returned: satisfied

Data request: Strictly below 50 °C in Tg (° C.) First heating? CC(C)c1nc(CN(C)C(=O)N[C@@H](CCN2CCOCC2)C(=O)N[C@H](CC[C@H](Cc2ccccc2)NC(=O)OCc2cncs2)Cc2ccccc2)cs1.CC(O)C(=O)O [lactate]
Data returned: satisfied

Data request: Strictly below 50 °C in Tg (° C.) First heating? CC(C)c1nc(CN(C)C(=O)N[C@@H](CCN2CCOCC2)C(=O)N[C@H](CC[C@H](Cc2ccccc2)NC(=O)OCc2cncs2)Cc2ccccc2)cs1.O=P(O)(O)O [phosphate]
Data returned: not satisfied

Data request: Strictly below 50 °C in Tg (° C.) First heating? `CC(C)c1nc(CN(C)C(=O)N[C@@H](CCN2CCOCC2)C(=O)N[C@H](CC[C@H](Cc2ccccc2)NC(=O)OCc2cncs2)Cc2ccccc2)cs1.CCS(=O)(=O)O`
Data returned: satisfied

Data request: Strictly below 50 °C in Tg (° C.) First heating? O=C(O)CCC(=O)C(=O)O [ketoglutarate]
Data returned: satisfied

Data request: Strictly below 50 °C in Tg (° C.) First heating? CC(C)c1nc(CN(C)C(=O)N[C@@H](CCN2CCOCC2)C(=O)N[C@H](CC[C@H](Cc2ccccc2)NC(=O)OCc2cncs2)Cc2ccccc2)cs1.O=C(O)CCC(=O)O [succinate]
Data returned: satisfied

Data request: Strictly below 50 °C in Tg (° C.) First heating? CC(C)c1nc(CN(C)C(=O)N[C@@H](CCN2CCOCC2)C(=O)N[C@H](CC[C@H](Cc2ccccc2)NC(=O)OCc2cncs2)Cc2ccccc2)cs1.Cl [hydrochloride]
Data returned: satisfied
